Task for the reader: assign each of the following molecules its reported log10(CC50 at 48 h).
Test: Compound cytotoxicity against CaCo-2 cells at 48 hours
Assay type: cell-based, Human
Details: human, CaCo-2 cells; Table 5, further results of Examples 1 and 2; mean ± spread
Counter-ions that a name gives are not always drawn.
Scale type: logarithmic (base 10). Underlying CC50 at 48 h unit: µM.

# input Provide log10(CC50 at 48 h) value for the following molecule: `Cc1cccc(C)c1OCC(=O)N[C@@H](Cc1ccccc1)[C@@H](O)C[C@H](Cc1ccccc1)NC(=O)[C@H](C(C)C)N1CCCNC1=O`
# output 3.33

# input Tell us which log10(CC50 at 48 h) value is on record for `Cc1cc(C)c(Nc2ccnc(Nc3ccc(C#N)cc3)n2)c(C)c1`
# output 0.70

# input Look up and report measured log10(CC50 at 48 h) for this entry: `CC[C@@H]([C@H](C)O)n1ncn(-c2ccc(N3CCN(c4ccc(OC[C@@H]5CO[C@@](Cn6cncn6)(c6ccc(F)cc6F)C5)cc4)CC3)cc2)c1=O`
# output 1.16

# input State its log10(CC50 at 48 h): CC1=C(CCC(=O)O)c2cc3[nH]c(cc4nc(cc5[nH]c(cc1n2)c(C)c5C(C)O)C(C)=C4C(C)O)c(C)c3CCC(=O)O (stereo not shown)
# output 2.20

# input Identify measured log10(CC50 at 48 h) corresponding to `Fc1ccc(C(c2ccc(F)cc2)N2CCN(C/C=C/c3ccccc3)CC2)cc1`
# output 2.14

# input Retrieve log10(CC50 at 48 h) measured for CCOc1ccc(Cc2nccc3cc(OCC)c(OCC)cc23)cc1OCC [ETHAVERINE HYDROCHLORIDE] and print it.
# output 1.04

# input Fill in reported log10(CC50 at 48 h) for this entry: `CCOc1ccc(/C=C2\NCCc3cc(OCC)c(OCC)cc32)cc1OCC`
# output 0.95

# input Fill in reported log10(CC50 at 48 h) for this entry: `Cc1cccc(C)c1NC(=O)CN1CCN(CCCC(c2ccc(F)cc2)c2ccc(F)cc2)CC1`
# output 1.50

# input Please indicate log10(CC50 at 48 h) recorded for `C[C@@H](c1nc(-c2ccc(C#N)cc2)cs1)[C@](O)(Cn1cncn1)c1ccc(F)cc1F`
# output 1.11

# input Look up and report measured log10(CC50 at 48 h) for this entry: CNC(=O)c1cc(Oc2ccc(NC(=O)Nc3ccc(Cl)c(C(F)(F)F)c3)cc2)ccn1 [Sorafenib Tosylate]
# output 0.07

# input Give the reported log10(CC50 at 48 h) for this molecule. `CN1CC[C@H](c2c(O)cc(O)c3c(=O)cc(-c4ccccc4Cl)oc23)[C@H](O)C1`
# output -1.22

# input Return value of log10(CC50 at 48 h) for input `Cc1c(C(=O)Nc2ccc(N3C[C@@H](C)O[C@@H](C)C3)nc2)cccc1-c1ccc(OC(F)(F)F)cc1` , no commentary.
# output 0.35

# input Find the measured log10(CC50 at 48 h) of `CC(C)(C)Cn1c(N)nc2ccc(-c3[nH]c(C(C)(C)C)nc3-c3ccc(F)cc3)nc21` and report it.
# output 1.75

# input Provide only the value of recorded log10(CC50 at 48 h) for `COC(=O)C[C@](O)(CCCC(C)(C)O)C(=O)O[C@@H]1C(OC)=C[C@]23CCCN2CCc2cc4c(cc2[C@H]13)OCO4`
# output 0.24

# input Specify reported log10(CC50 at 48 h) for the molecule shown: `Clc1ccc(Nc2nnc(Cc3ccncc3)c3ccccc23)cc1`
# output 1.81

# input State its log10(CC50 at 48 h): NC(=O)N1CCC(CC(=O)N2CCC([C@H]3c4ncc(Br)cc4CCc4cc(Cl)cc(Br)c43)CC2)CC1 [Lonafarnib (SCH66336), Lonafarnib]
# output 1.03

# input Provide log10(CC50 at 48 h) value for the following molecule: `CC(C)S(=O)(=O)NC[C@H](C)c1ccc(-c2ccc(CCNS(C)(=O)=O)cc2)cc1`
# output 0.94

# input Report log10(CC50 at 48 h) for `O=C(Nc1nc(-c2cc(Cl)cs2)c(N2CCN(C3CCCCC3)CC2)s1)c1cnc(N2CCC(C(=O)O)CC2)c(Cl)c1`
# output 1.32

# input Give the measured log10(CC50 at 48 h) for C=CCNc1nc(NCC=C)nc(N2CCN(C(c3ccc(F)cc3)c3ccc(F)cc3)CC2)n1 [Almitrine dimesilate]
# output 2.01

# input Supply log10(CC50 at 48 h) value. Item: `O=c1ccc2ccc(OCCCCN3CCN(c4cccc5sccc45)CC3)cc2[nH]1`
# output 1.70

# input Give a short answer stating reported log10(CC50 at 48 h) for `Fc1ccc(-c2cncc(CN3CCN(c4cccc5c4OCCO5)CC3)c2)cc1` .
# output 1.88

# input Consider the molecule `Cc1nc2ccccc2n1Cc1ccc(Cl)cc1` . State its measured log10(CC50 at 48 h).
# output -0.06
